Assay System: UniProt Q9P1W9
Assay Notes: inhibition test on kinase PIM-2 (residual activity, IC50)
Type: biochemical
Assay Conditions: product at 10 μmol/L; Table 2; N.I. = not inhibitory; read-out: Percentage of residual activity PIM-2
Listed here: items and their measured remaining activity at 10 µM.
Just the number in %, nothing appended.

Sample records with remaining activity at 10 µM:
> print(dat)
                            smiles.notation  value.observed
1         OCCc1c[nH]c2c1ccc1c3ccccc3[nH]c12              50
2  O=S(=O)(c1ccccc1)n1ccc2ccc3c4cc(Br)ccc4[nH]c3c21              52

Switching to the query record.
Query: Return the recorded remaining activity at 10 µM value; entry: CCN(CC)CCc1c[nH]c2c1ccc1c3ccccc3[nH]c12
Result: 78

* * *

Assay System: PIM-3 (Homo sapiens (Human), UniProt Q86V86)
Assay Notes: inhibition test on kinase PIM-3 (residual activity, IC50)
Type: biochemical
Assay Conditions: product at 10 μmol/L; Table 2; N.I. = not inhibitory; read-out: Percentage of residual activity PIM-3
remaining activity at 10 µM for assorted compounds

> print(dat)
                                   compound           parameter.measured  value.observed
1  O=Cc1c[nH]c2c1ccc1c3cc([N+](=O)[O-])ccc3[nH]c12  remaining activity at 10 µM             35%
2    Cc1ccc2c(c1)[nH]c1c2ccc2c(C=O)c[nH]c21  remaining activity at 10 µM              8%
3  O=Cc1c[nH]c2c1ccc1c3cc(-c4ccc(OC(F)(F)F)cc4)ccc3[nH]c12  remaining activity at 10 µM             31%
4  COc1cccc(-c2ccc3[nH]c4c(ccc5cc[nH]c54)c3c2)c1  remaining activity at 10 µM             39%
5  O=Cc1c[nH]c2c1ccc1c3cc(-c4ccc(C(F)(F)F)cc4)ccc3[nH]c12  remaining activity at 10 µM             23%
6           Fc1cccc2c1[nH]c1c2ccc2cc[nH]c21  remaining activity at 10 µM             43%

Switching to the query record.
Query: Give a short answer stating reported remaining activity at 10 µM for O=Cc1c[nH]c2c1ccc1c3cccc(Br)c3[nH]c12 .
Result: 9%

* * *

Assay System: PIM-2 (Homo sapiens (Human))
Sequence (Q9P1W9 whole entry, species assumed): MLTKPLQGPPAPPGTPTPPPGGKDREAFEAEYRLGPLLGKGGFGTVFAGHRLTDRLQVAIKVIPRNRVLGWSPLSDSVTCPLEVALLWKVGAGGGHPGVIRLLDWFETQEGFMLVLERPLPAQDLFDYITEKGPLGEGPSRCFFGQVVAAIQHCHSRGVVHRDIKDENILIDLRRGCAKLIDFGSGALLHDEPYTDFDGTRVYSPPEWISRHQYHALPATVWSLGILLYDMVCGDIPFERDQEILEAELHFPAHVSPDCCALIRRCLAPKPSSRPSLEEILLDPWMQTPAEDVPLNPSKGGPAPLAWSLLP
Assay Notes: inhibition test on kinase PIM-2 (residual activity, IC50)
Format: biochemical
Assay Conditions: product at 10 μmol/L; Table 2; N.I. = not inhibitory; read-out: Percentage of residual activity PIM-2
Parameter Measured: remaining activity at 10 µM (%)
A number alone suffices; assume %.

> print(dat)
                                   compound           parameter.measured  unit.annotation  value.observed
1  O=Cc1c[nH]c2c1ccc1c3cc(-c4ccc(F)cc4F)ccc3[nH]c12 [Example 40]  remaining activity at 10 µM                %              32

Query: Given the compound COc1cccc(-c2ccc3[nH]c4c(ccc5c(C=O)c[nH]c54)c3c2)c1 [Example 36] , write its reported remaining activity at 10 µM.
Result: 31

Query: Give remaining activity at 10 µM for the following compound: O=Cc1c[nH]c2c1ccc1c3cc(-c4ccc(-c5ccccc5)cc4)ccc3[nH]c12 [Example 37]
Result: 70

Query: Give recorded remaining activity at 10 µM. CCN(CC)C(=O)C(=O)c1c[nH]c2c1ccc1c3ccccc3[nH]c12 [Example 10]
Result: 51

Query: For the compound COc1cccc(-c2ccc3[nH]c4c(ccc5cc[nH]c54)c3c2)c1 [Example 18] , report remaining activity at 10 µM.
Result: 51

Query: Identify the reported remaining activity at 10 µM for the following entry. c1ccc2c(c1)[nH]c1c2ccc2cc[nH]c21 [Example 2, 1,10-dihydropyrrolo[2,3-a]carbazole]
Result: 62

Query: Answer with the recorded remaining activity at 10 µM of O=Cc1c[nH]c2c1ccc1c3cc(-c4ccc(OC(F)(F)F)cc4)ccc3[nH]c12 [Example 42] only.
Result: 70

Query: State its remaining activity at 10 µM for this compound: NC(=O)c1c[nH]c2c1ccc1c3ccccc3[nH]c12 [Example 5]
Result: 27

* * *

Assay System: PIM-1 (Homo sapiens (Human), UniProt P11309)
Sequence (P11309 whole entry, species assumed): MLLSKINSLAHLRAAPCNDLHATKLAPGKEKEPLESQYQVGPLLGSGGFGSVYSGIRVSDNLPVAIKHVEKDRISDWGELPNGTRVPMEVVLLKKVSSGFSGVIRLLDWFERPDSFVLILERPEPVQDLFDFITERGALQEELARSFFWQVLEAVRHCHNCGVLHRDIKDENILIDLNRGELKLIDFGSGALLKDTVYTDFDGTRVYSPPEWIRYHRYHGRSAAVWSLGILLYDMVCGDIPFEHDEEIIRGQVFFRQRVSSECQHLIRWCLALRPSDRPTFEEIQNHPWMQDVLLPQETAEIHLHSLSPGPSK
Assay Notes: inhibition test on kinase PIM-1 (residual activity, IC50)
Assay type: biochemical
Assay Conditions: product at 10 μmol/L; Table 2; N.I. = not inhibitory; read-out: Percentage of residual activity PIM-1
Parameter Measured: remaining activity at 10 µM (%)
Write the value in % as a bare number.

> print(dat)
                                   molecule           parameter.measured  unit.annotation  value.observed
1  O=S(=O)(c1ccccc1)n1ccc2ccc3c4cc(Br)ccc4[nH]c3c21  remaining activity at 10 µM                %              51
2        Brc1ccc2[nH]c3c(ccc4cc[nH]c43)c2c1  remaining activity at 10 µM                %              12
3  N#Cc1ccc2[nH]c3c(ccc4c(C=O)c[nH]c43)c2c1  remaining activity at 10 µM                %              92

Query: Recall the reported remaining activity at 10 µM of O=C(c1c[nH]c2c1ccc1c3ccccc3[nH]c12)C(F)(F)F on PIM-1 (Homo sapiens (Human), UniProt P11309) and write it down.
Result: 20

Query: Report remaining activity at 10 µM under test system PIM-1 (Homo sapiens (Human), UniProt P11309) for c1ccc2c(c1)[nH]c1c2ccc2cc[nH]c21 [Example 2, 1,10-dihydropyrrolo[2,3-a]carbazole] .
Result: 20

* * *

Assay System: UniProtKB P11309
Assay Notes: inhibition test on kinase PIM-1 (residual activity, IC50)
Type: biochemical
Assay Conditions: product at 10 μmol/L; Table 2; N.I. = not inhibitory; read-out: Percentage of residual activity PIM-1
Binary label based on remaining activity at 10 µM with cut-off 30%: below gives true, not below gives false.

// known answers, use as guide
> print(dat)
                          smiles.notation  label
1   CCc1cccc2c1[nH]c1c2ccc2c(C=O)c[nH]c21   true
2  Cc1ccc2c(c1)[nH]c1c2ccc2c(C=O)c[nH]c21   true

Query: Input CCN(CC)C(=O)/C(=N\O)c1c[nH]c2c1ccc1c3ccccc3[nH]c12 ; condition: remaining activity at 10 µM strictly below 30%. Does it hold?
Result: false

Query: Here's an entry: Brc1cccc2c1[nH]c1c2ccc2cc[nH]c21 . Is its remaining activity at 10 µM below 30%?
Result: false

Query: Find out if reported remaining activity at 10 µM for OCc1c[nH]c2c1ccc1c3ccccc3[nH]c12 is less than 30%
Result: true

* * *

Measured remaining activity at 10 µM values are reported for all entries that follow.
Assay System: PIM-3 (Homo sapiens (Human), UniProt Q86V86)
Assay Notes: inhibition test on kinase PIM-3 (residual activity, IC50)
Assay type: biochemical
Assay Conditions: product at 10 μmol/L; Table 2; N.I. = not inhibitory; read-out: Percentage of residual activity PIM-3
Respond numerically; units are % and should not be typed.

Recorded remaining activity at 10 µM, per entry:
> print(dat)
                                   compound  value.observed
1  CCc1cccc2c1[nH]c1c2ccc2c(C=O)c[nH]c21 [Example 51]              10
2  O=Cc1c[nH]c2c1ccc1c2[nH]c2cccc(Br)c21 [Example 44]               5
3  c1ccc2c(c1)[nH]c1c2ccc2cc[nH]c21 [Example 2, 1,10-dihydropyrrolo[2,3-a]carbazole]              10
4  Fc1ccc2[nH]c3c(ccc4cc[nH]c43)c2c1 [Example 28]              20
5  COc1cccc(-c2ccc3[nH]c4c(ccc5c(C=O)c[nH]c54)c3c2)c1 [Example 36]              12

Consider the record given below.
Query: Quickly give me recorded remaining activity at 10 µM for O=S(=O)(c1ccccc1)n1ccc2ccc3c4cc(Br)ccc4[nH]c3c21 [Example 14]
Result: 61

* * *

Measured remaining activity at 10 µM by item
Assay System: UniProtKB Q86V86
Assay Notes: inhibition test on kinase PIM-3 (residual activity, IC50)
Assay type: biochemical
Assay Conditions: product at 10 μmol/L; Table 2; N.I. = not inhibitory; read-out: Percentage of residual activity PIM-3

Solved entries (count: 10):
> print(dat)
                                    compound  value.observed
 1  O=Cc1c[nH]c2c1ccc1c3cc(-c4ccc(F)cc4)ccc3[nH]c12             15%
 2        Brc1ccc2c(c1)[nH]c1c2ccc2cc[nH]c21             15%
 3    FC(F)(F)c1cccc2c1[nH]c1c2ccc2cc[nH]c21             45%
 4  O=Cc1c[nH]c2c1ccc1c2[nH]c2cc(Cl)cc(Cl)c21              6%
 5        Brc1ccc2[nH]c3c(ccc4cc[nH]c43)c2c1              8%
 6  CCN(CC)C(=O)/C(=N\O)c1c[nH]c2c1ccc1c3ccccc3[nH]c12             21%
 7      O=Cc1c[nH]c2c1ccc1c3cccc(F)c3[nH]c12              3%
 8  CCOC(=O)C(=O)c1c[nH]c2c1ccc1c3ccccc3[nH]c12             33%
 9  N#Cc1ccc2[nH]c3c(ccc4c(C=O)c[nH]c43)c2c1             14%
10  CCN(CC)C(=O)C(=O)c1c[nH]c2c1ccc1c3ccccc3[nH]c12             39%

Query: Please look at this compound and report its remaining activity at 10 µM: OCc1c[nH]c2c1ccc1c3ccccc3[nH]c12
Result: 18%

Query: Read off the recorded remaining activity at 10 µM for CCN(CC)CC(O)c1c[nH]c2c1ccc1c3ccccc3[nH]c12 (stereo not drawn)
Result: 16%

Query: Name the recorded remaining activity at 10 µM of the item Brc1cccc2[nH]c3c(ccc4cc[nH]c43)c12 in your answer.
Result: 11%

Query: Read the entry OCCc1c[nH]c2c1ccc1c3ccccc3[nH]c12 and write its reported remaining activity at 10 µM.
Result: 21%

Query: Provide only the value of recorded remaining activity at 10 µM for O=[N+]([O-])c1ccc2[nH]c3c(ccc4cc[nH]c43)c2c1
Result: 11%
